Read-out: serum amyloid A (SAA), SAA1 (gene 6288)
Assay: BSK_CASM3C_SAA: BioMAP Diversity Plus: CASM3C Assay for serum amyloid A (SAA) Biomarker Activity (AID 2283049);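 further: SAA protein level quantified by ELISA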
Conditions: primary human coronary artery smooth muscle cells; actives raise or lower the signal
Active and inactive are the calls of the source. How the source made its calls: active means hit-call score of the fitted dose curve at least 0.9, where 1 is the maximum; inactive means score below 0.9.
Reply using exactly one outcome from YES (active), NO (inactive)

Call for entry `CN(C)CCOC(c1ccccc1)c1ccccc1` :
NO

Same read-out for `COC1=CC(=O)C[C@@H](C)[C@]12Oc1c(Cl)c(OC)cc(OC)c1C2=O` ?
NO

Same read-out for `CC1=NN(c2ccccc2)C(=O)C1` ?
NO

Same read-out for `CS(=O)(=O)c1ccc([C@@H](CC2CCCC2)C(=O)Nc2cnccn2)cc1Cl` ?
NO

Same read-out for `CCCCCCCCCCCCCCC` ?
NO

More entries:
Call for entry CCCCC(CC)C(=O)OCCOCCOCCOCCOC(=O)C(CC)CCCC (stereo not drawn) :
NO

Same read-out for `CN(C)c1ccc(C(=C2C=CC(=[N+](C)C)C=C2)c2ccccc2)cc1` ?
YES

Same read-out for `O=C(NO)c1ccccc1` ?
NO
